Recorded values, source patent US20240417458A1.

koff: recorded values
- tested target: T1, soluble rat RGMa (rat, UniProt D4A188 48-421)
- T1 construct: Soluble antigen in BIAcore
- T1 sequence: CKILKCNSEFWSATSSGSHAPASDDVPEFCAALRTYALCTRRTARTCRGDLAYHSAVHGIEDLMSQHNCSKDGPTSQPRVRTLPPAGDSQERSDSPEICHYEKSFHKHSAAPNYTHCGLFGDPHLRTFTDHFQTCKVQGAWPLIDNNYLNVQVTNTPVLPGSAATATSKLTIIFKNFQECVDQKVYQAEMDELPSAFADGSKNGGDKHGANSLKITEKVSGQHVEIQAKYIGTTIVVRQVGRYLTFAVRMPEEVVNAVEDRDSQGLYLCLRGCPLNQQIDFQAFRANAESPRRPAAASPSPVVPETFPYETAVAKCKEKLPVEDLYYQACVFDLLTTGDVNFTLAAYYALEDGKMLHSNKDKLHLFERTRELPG
- test summary: SPR (BIAcore);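 further: binding kinetics and affinity of anti-HJV antibodies toward soluble rat RGMa, determined by SPR on a BIAcore instrument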
Return type: number; implicit unit s⁻¹.

For the binder hHA-006 (antibody, human IgG1, kappa, L234A L235A, V domains shown, hIgG1 L234A, L235A, kappa) VH: EVQLVESGGGLVQPGGSLRLSCAASGFTFSYYGMNWIRQAPGKGLEWIGMIYYDSSEKHYADSVKGRFTISRDNSKNTLYLQMNSLRAEDTAVYYCAKGTTPDYWGQGTMVTVSS VL: DVVLTQSPLSLPVTLGQPASISCRSSQSLEDSDGGTFLEWFQQRPGQSPRLLIYDVSSRFSGVPDRFSGSGSGTDFTLKISRVEAEDVGVYYCFQATHDPLTFGQGTKLEIKR , give its reported koff.
3e-05

# ---- query binder ----
For the binder hHA-010 (antibody, human IgG1, kappa, L234A L235A, V domains shown, hIgG1 L234A, L235A, kappa) VH: EVQLVESGGGLVQPGGSLRLSCAASGFTFSNYGMNWVRQAPGKGLEWIGMIYYDSSEKHYADSVKGRFTISRDNSKNTLYLQMNSLRAEDTAVYYCAKGTTPDKWGQGTMVTVSS VL: DVVLTQSPLSLPVTLGQPASISCRSSQSLEESDGYTFLEWFQQRPGQSPRLLIYEVSHRFSGVPDRFSGSGSGTDFTLKISRVEAEDVGVYYCFQATHDPLTFGQGTKLEIKR , give its reported koff.
2.6e-05
